For each record, write down the corresponding Activity.
# tested-system: Tyrosinase (Agaricus bisporus)
# method-summary: Induction of mushroom tyrosinase activity using L-tyrosine as substrate at 50 uM after 30 mins
Number plus unit, in that order.

See these solved cases before continuing.
O=c1c(O[C@@H]2O[C@H](CO)[C@@H](O[C@@H]3O[C@H](CO)[C@@H](O)[C@H](O)[C@H]3O)[C@H](O)[C@H]2O)c(-c2ccc(O)c(O)c2)oc2cc(O)cc(O)c12    97.5%
O=c1c(O[C@@H]2O[C@H](CO)[C@@H](O)[C@H](O)[C@H]2O)c(-c2ccc(O)c(O)c2)oc2cc(O)cc(O)c12 [ISOQUERCETIN]    112%
O=c1c(O[C@@H]2O[C@H](CO)[C@@H](O)[C@H](O)[C@H]2O)c(-c2ccc(O)c(O)c2)oc2cc(O[C@@H]3O[C@H](CO)[C@@H](O)[C@H](O)[C@H]3O)cc(O)c12    92.8%
O=c1c(O[C@@H]2O[C@H](CO)[C@@H](O[C@@H]3O[C@H](CO)[C@@H](O)[C@H](O)[C@H]3O)[C@H](O)[C@H]2O)c(-c2ccc(O)c(O)c2)oc2cc(O[C@@H]3O[C@H](CO)[C@@H](O[C@@H]4O[C@H](CO)[C@@H](O)[C@H](O)[C@H]4O)[C@H](O)[C@H]3O)cc(O)c12    104%
O=c1c(O[C@@H]2O[C@H](CO)[C@@H](O[C@@H]3O[C@H](CO)[C@@H](O)[C@H](O)[C@H]3O)[C@H](O)[C@H]2O)c(-c2ccc(O)c(O)c2)oc2cc(O[C@@H]3O[C@H](CO)[C@@H](O)[C@H](O)[C@H]3O)cc(O)c12    103%

Sample O=c1c(O[C@@H]2O[C@H](CO)[C@@H](O[C@@H]3O[C@H](CO)[C@@H](O)[C@H](O)[C@H]3O)[C@H](O)[C@H]2O)c(-c2ccc(O[C@@H]3O[C@H](CO)[C@@H](O)[C@H](O)[C@H]3O)c(O)c2)oc2cc(O)cc(O)c12 — what was its Activity? 105%

====

# tested-system: Tyrosinase (Agaricus bisporus)
# method-summary: Induction of mushroom tyrosinase activity using L-tyrosine as substrate at 200 uM after 30 mins
result-type: Activity (%)
Give bare numbers, in %.

O=c1c(O[C@@H]2O[C@H](CO)[C@@H](O)[C@H](O)[C@H]2O)c(-c2ccc(O[C@@H]3O[C@H](CO)[C@@H](O[C@@H]4O[C@H](CO)[C@@H](O)[C@H](O)[C@H]4O)[C@H](O)[C@H]3O)c(O)c2)oc2cc(O)cc(O)c12    82.4

Need Activity for each of these compounds.
1. O=c1c(O[C@@H]2O[C@H](CO)[C@@H](O)[C@H](O)[C@H]2O)c(-c2ccc(O)c(O)c2)oc2cc(O)cc(O)c12 [ISOQUERCETIN]
2. O=c1c(O[C@@H]2O[C@H](CO)[C@@H](O)[C@H](O)[C@H]2O)c(-c2ccc(O)c(O)c2)oc2cc(O[C@@H]3O[C@H](CO)[C@@H](O[C@@H]4O[C@H](CO)[C@@H](O)[C@H](O)[C@H]4O)[C@H](O)[C@H]3O)cc(O)c12
3. O=c1c(O[C@@H]2O[C@H](CO)[C@@H](O[C@@H]3O[C@H](CO)[C@@H](O)[C@H](O)[C@H]3O)[C@H](O)[C@H]2O)c(-c2ccc(O)c(O)c2)oc2cc(O)cc(O)c12
4. O=c1c(O[C@@H]2O[C@H](CO)[C@@H](O[C@@H]3O[C@H](CO)[C@@H](O)[C@H](O)[C@H]3O)[C@H](O)[C@H]2O)c(-c2ccc(O[C@@H]3O[C@H](CO)[C@@H](O[C@@H]4O[C@H](CO)[C@@H](O)[C@H](O)[C@H]4O)[C@H](O)[C@H]3O)c(O)c2)oc2cc(O)cc(O)c12
5. O=c1c(O[C@@H]2O[C@H](CO)[C@@H](O[C@@H]3O[C@H](CO)[C@@H](O)[C@H](O)[C@H]3O)[C@H](O)[C@H]2O)c(-c2ccc(O)c(O)c2)oc2cc(O[C@@H]3O[C@H](CO)[C@@H](O[C@@H]4O[C@H](CO)[C@@H](O)[C@H](O)[C@H]4O)[C@H](O)[C@H]3O)cc(O)c12

104
85.6
82.2
97.6
101

====

# tested-system: Tyrosinase (Agaricus bisporus) (UniProt O42713)
# Sequence (O42713 whole entry): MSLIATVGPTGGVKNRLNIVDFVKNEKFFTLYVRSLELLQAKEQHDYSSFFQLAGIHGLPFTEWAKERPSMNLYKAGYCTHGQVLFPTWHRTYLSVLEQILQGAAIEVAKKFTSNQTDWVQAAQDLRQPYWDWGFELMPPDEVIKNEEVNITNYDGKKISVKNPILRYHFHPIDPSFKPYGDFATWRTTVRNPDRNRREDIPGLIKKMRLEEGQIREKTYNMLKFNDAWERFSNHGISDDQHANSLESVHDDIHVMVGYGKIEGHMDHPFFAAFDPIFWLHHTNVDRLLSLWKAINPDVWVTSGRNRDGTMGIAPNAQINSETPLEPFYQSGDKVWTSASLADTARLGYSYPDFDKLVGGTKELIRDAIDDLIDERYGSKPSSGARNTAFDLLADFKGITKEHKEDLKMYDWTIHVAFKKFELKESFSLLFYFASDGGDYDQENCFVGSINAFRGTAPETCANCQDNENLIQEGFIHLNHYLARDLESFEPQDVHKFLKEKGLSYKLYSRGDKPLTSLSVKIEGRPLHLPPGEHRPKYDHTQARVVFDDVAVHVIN
# method-summary: Induction of mushroom tyrosinase activity using L-tyrosine as substrate at 200 uM after 30 mins
result-type: Activity
Number plus unit, in that order.

See these solved cases before continuing.
O=c1c(O[C@@H]2O[C@H](CO)[C@@H](O)[C@H](O)[C@H]2O)c(-c2ccc(O[C@@H]3O[C@H](CO)[C@@H](O)[C@H](O)[C@H]3O)c(O)c2)oc2cc(O)cc(O)c12    94.3%
O=c1c(O[C@@H]2O[C@H](CO)[C@@H](O)[C@H](O)[C@H]2O)c(-c2ccc(O)c(O)c2)oc2cc(O[C@@H]3O[C@H](CO)[C@@H](O)[C@H](O)[C@H]3O)cc(O)c12    86.7%
O=c1c(O[C@@H]2O[C@H](CO)[C@@H](O[C@@H]3O[C@H](CO)[C@@H](O)[C@H](O)[C@H]3O)[C@H](O)[C@H]2O)c(-c2ccc(O[C@@H]3O[C@H](CO)[C@@H](O)[C@H](O)[C@H]3O)c(O)c2)oc2cc(O)cc(O)c12    106%

Sample O=c1c(O[C@@H]2O[C@H](CO)[C@@H](O[C@@H]3O[C@H](CO)[C@@H](O)[C@H](O)[C@H]3O)[C@H](O)[C@H]2O)c(-c2ccc(O)c(O)c2)oc2cc(O[C@@H]3O[C@H](CO)[C@@H](O)[C@H](O)[C@H]3O)cc(O)c12 — what was its Activity? 104%
